biological target: immunoglobulin immobilized on IgG Sepharose 6 Fast Flow (manufactured by Cytiva); assay: IgG Sepharose 6 Fast Flow column; linear gradient 0.1 M citrate pH 6.5 to pH 2.2; pH at the peak of the eluted binding protein
Each entry below carries its reported Elution pH.
Please reply with the bare figure in pH and do not write the unit itself.

These solved cases illustrate the format of a correct answer.
>>> endpoint_value("FpL_C3 N62H (designed binder) ETPEEPKEEVTIKVNLIFADGKIQTAEFKGTFEEATAKAYAYANLLAKENGEYTADLEDGGHTINIKFAGHHHHHH")
3
>>> endpoint_value("FpL_C3 G51V (designed binder) ETPEEPKEEVTIKVNLIFADGKIQTAEFKGTFEEATAKAYAYANLLAKENVEYTADLEDGGNTINIKFAGHHHHHH")
3.4
>>> endpoint_value("FpL_C3 G21R (designed binder) ETPEEPKEEVTIKVNLIFADRKIQTAEFKGTFEEATAKAYAYANLLAKENGEYTADLEDGGNTINIKFAGHHHHHH")
3.4

Which Elution pH value is on record for FpL_C4KR amino acid substitution mutant Lys(Arg)7Gln (designed binder) ETPEEPQEEVTIRVNLIFADGRTQTAEFRGTFEEATAEAYRYADLLARVNGEYTADLEDGGYTINIRFAGHHHHHH ?
3

Quick one: Elution pH for FpL_C4KR amino acid substitution mutant Lys(Arg)22Thr (designed binder) ETPEEPREEVTIRVNLIFADGTTQTAEFRGTFEEATAEAYRYADLLARVNGEYTADLEDGGYTINIRFAGHHHHHH ?
3.2

Taken from patent US20250002543A1.
